Assay: in vitro
Conditions: human, hela cells, % viability
recorded metric: viability at 28.5 h, 10 µM (%)
Give just the number in %; leave the unit off.

Answered examples (3):
c1csc(-c2cn3ccnc3c(NC3CC3)n2)c1: 108
CCOC(=O)c1cccc(-c2ccc(F)cc2F)n1: 101
CSCC[C@@H]1NC(=O)N(c2ccc(CN3CCOCC3)cc2)C1=O: 83.2

Looking for the measured viability at 28.5 h, 10 µM of `Cc1nnnn1CCC(=O)NCCc1cn2ccccc2n1` , can you help?
121

# query: viability at 28.5 h, 10 µM of entry COc1ccc(C(=O)N2CCC(N(C)Cc3ccc(-c4ccc(S(C)(=O)=O)cc4)nc3)CC2)cc1Cl [CBK165991T]
95.8

----------
A collection of compounds and their measured viability at 28.5 h, 10 µM
Assay: in vitro
Settings: human, hela cells, % viability
Write the number in % without appending the unit.

O=C(c1ccc(F)cc1)N1CCC[C@@H]1Cn1c(=O)oc2ccccc21: 89.4
NC(=O)NC(CC(=O)N1CCN(c2nccs2)CC1)c1cccc(Br)c1 (stereo not shown): 90.6

Continue with the compound presented below.
Give the measured viability at 28.5 h, 10 µM of CN(C)C(=O)c1cc2cc(NC(=O)CC3COCCN3)ccc2s1 (stereo not shown) .
105

----------
Assay: in vitro
Details: human, hela cells, % viability
So basically, if viability at 28.5 h, 10 µM comes in under 90% it's TRUE, and if it's 90% or more it's FALSE.

CCOC(=O)c1[nH]c2ccccc2c1NS(=O)(=O)c1ccc(C)c([N+](=O)[O-])c1 [CBK047427]: FALSE
Cc1cc(C)n(CCOc2nonc2N)n1 [CBK025818]: FALSE
COc1ccc(-n2ncc3c2CC(C)(C)CC3N)cc1 (stereo not drawn) [CBK306789]: TRUE
O=C(c1cccc(-c2nnc(-c3ccccc3)o2)c1)N1CCN(C(=O)c2ccco2)CC1 [CBK269809]: TRUE
Cc1c(Cl)ccc2c(C(=O)Nc3ccc(S(=O)(=O)N4CCOCC4)cc3)cc(-c3cccnc3)nc12 [CBK267718]: TRUE

Bench note: check whether CC1(OCc2ccccc2)SC(NC2CCCCCC2)=NC1=O (stereo not drawn) [CBK105606] shows viability at 28.5 h, 10 µM below 90%
TRUE

viability at 28.5 h, 10 µM strictly < 90% for this molecule? COc1ccc(C(=O)NCCCCCC(=O)O)cc1 [CBK287146]
FALSE

Decide: viability at 28.5 h, 10 µM of CCOC(=O)Cn1c(-c2cccs2)cc2cccnc21 [CBK282267] strictly below 90%?
FALSE

Confirm or reject: viability at 28.5 h, 10 µM of Cc1cccc(OCCSc2nc3c(N)ncn(Cc4ccccc4)c-3n2)c1 [CBK266843] lies strictly below 90%
TRUE

Does the reported viability at 28.5 h, 10 µM of Oc1c(Br)cc2oc3c(c2c1CNc1ccccc1)CCCC3 [CBK160397] stay below 90%?
FALSE

Problem: For the molecule COC(=O)CCC(=O)NNC(=O)c1cccc(Br)c1 [CBK261606] , is viability at 28.5 h, 10 µM under 90%?
FALSE

----------
Assay: in vitro
Conditions: human, hela cells, % viability
recorded metric: viability at 28.5 h, 10 µM (%)
Numbers only; they are read as %.

These solved cases illustrate the format of a correct answer.
O=S(=O)(Cc1ccc(Br)cc1)c1cc2c(N3CCNCC3)nccc2s1 [CBK045688C]: 87.4
CCCCOc1ccc(S(=O)(=O)Nc2ccc(-c3cn4ccccc4n3)cc2)cc1: 88.9
O=C(Oc1cccc2cccnc12)c1cc(S(=O)(=O)N2CCOCC2)ccc1Cl: 91.3
N#CC(/N=C/c1ccc(C#Cc2ccccc2)cc1)=C(C#N)/N=C/c1ccc(C#Cc2ccccc2)cc1: 88

Attention now shifts to the item below.
Looking for the measured viability at 28.5 h, 10 µM of `Cc1ccc2cc(COC(=O)c3ccc(N4CCOCC4)nc3)c(Cl)nc2c1` , can you help?
90.5

----------
Measured viability at 28.5 h, 10 µM of individual entries
Experiment: in vitro
Settings: human, hela cells, % viability
Hi! Could you send only the number? It should be in %, unit omitted.

A selection of reference data follows.
CC(C)Oc1ccc(C(=O)N2CC(C)C(N3CCOCC3)C2)cn1 (stereo not drawn): 110
CN1CCN(c2ccccc2NC(=O)c2ccc3ccccc3c2)CC1: 96.1

Would you kindly look at the next entry?
What value of viability at 28.5 h, 10 µM has been reported for the following molecule? `CC(C)N(C(=O)N1CCC2(CC1)CC(=O)c1ccccc1O2)C(C)C`
90.7

----------
Test: in vitro
Conditions: human, hela cells, % viability
recorded metric: viability at 28.5 h, 10 µM (%)
Supply the numeric figure in %, leaving out any unit text.

O=C(Nc1ccc(-c2ccc(NC(=O)c3ccncc3)cc2)cc1)c1ccncc1: 98.9

Using the record for COc1ccc(C)cc1C1(CNC(=O)C2CCC(=O)N2)CCOCC1 (centres unmarked) , report its viability at 28.5 h, 10 µM.
94.8

Param item = `CC(=O)N1CCC2(C/C=C/C[C@H]3CN(C(=O)CC4CCOCC4)CC[C@H]3NC(=O)CNC2=O)CC1` ; retrieve measured viability at 28.5 h, 10 µM.
98.8

// query viability at 28.5 h, 10 µM value for entry `Cc1ccc(S(=O)(=O)NCCCC(=O)Oc2cc3oc(=O)c4c(c3cc2Cl)CCC4)cc1`
86.8

May I ask what viability at 28.5 h, 10 µM has been recorded for `CCNc1cc(-c2cccc(N)c2)ncn1` ?
96.4

----------
Assay: in vitro
Conditions: human, hela cells, % viability
viability at 28.5 h, 10 µM for assorted molecules
Provide the reading as a plain figure in %.

CC(=O)NCC(=O)N1CCC2(C/C=C/CNC(=O)c3ccccc3OCCNC2=O)CC1: 97.4

viability at 28.5 h, 10 µM lookup needed for `CCOC(=O)c1nnsc1Sc1ccc(C)cc1` , thanks.
89.6

Which value of viability at 28.5 h, 10 µM has been reported for O=c1[nH]c2ncc(-c3cncc4ccccc34)nc2n1C1CCC(O)CC1 (stereo not shown) in the records?
108

----------
Measured viability at 28.5 h, 10 µM, listed per entry for reference.
Test: in vitro
Settings: human, hela cells, % viability
Report only the number, with the unit % understood.

Completed entries (count: 2):
O=C(N/N=C/c1ccccn1)c1n[nH]c2c1CCCC2: 90.8
O=C(CN(c1ccc(I)cc1)S(=O)(=O)c1ccccc1)NCC1CCCO1 (stereo not shown): 101

Which viability at 28.5 h, 10 µM reading was recorded for the molecule `CC(=O)N[C@H](Cc1c[nH]c2ccccc12)C(=O)N1CCN(c2ccc(C(F)(F)F)cc2)CC1` ?
94.5

What value of viability at 28.5 h, 10 µM has been recorded for this entry: `COc1ccc(S(=O)(=O)Nc2nccnc2-c2cccs2)cc1OC`
104

Which viability at 28.5 h, 10 µM is listed for `CCOC(=O)N1CCC(NS(=O)(=O)c2cc(Br)c(Cl)s2)CC1` ?
95.8

Form field: reported viability at 28.5 h, 10 µM of `Nc1ncc(-c2ccc3c(c2)OCO3)nc1N1CCC(C(=O)O)CC1`
101

What viability at 28.5 h, 10 µM value was documented for this molecule, `CCCCn1ncnc1-c1cnc2ccnn2c1C` ?
114

----------
Experiment: in vitro
Details: human, hela cells, % viability
Assign labels as follows, please: Yes for viability at 28.5 h, 10 µM below 90%; No for viability at 28.5 h, 10 µM equal to or exceeding 90%.

Clc1ccc(-c2cn(-c3cnc4ccccc4c3)nn2)cc1 [CBK113044]: No
CSc1ccc(/C=C(\C#N)c2nn(-c3ccccc3)c(N)c2C#N)cc1 [CBK262339]: No
CS(=O)(=O)c1ccc(CN2CC[C@H](c3nc4ncccc4[nH]3)C2)cc1 [CBK289385]: No
Cc1sc(-c2ccc(C(F)(F)F)cc2)nc1COc1cncc(N2CCNCC2)n1 [CBK172383G]: Yes
CC(=O)C(Sc1nc(N2CCOCC2)nc(N2CCOCC2)n1)C(=O)Nc1ccccc1 (stereo not shown) [CBK266643]: No

Attention now shifts to the item below.
Lab log: compare recorded viability at 28.5 h, 10 µM with 90%; is it strictly lower for CNc1nc2ccccc2n1CC(=O)c1ccccc1 [CBK262251B] ?
No

----------
Test: in vitro
Settings: human, hela cells, % viability
Label class 1 when viability at 28.5 h, 10 µM is strictly below 90%; otherwise label class 0.

Observe how each entry below is paired with its result.
O=C(Nc1ccc2n(c1=O)C[C@H]1C[C@@H]2CN(c2ncccn2)C1)c1ccccc1 [CBK289077]: class 1
COc1ccc(CCC(=O)N2CCCC(c3nccnc3-c3cccc(C)c3)C2)cc1 (stereo not shown) [CBK286510]: class 0
CC1CCCCC12NC(=O)N(Cc1csc(-c3cccs3)n1)C2=O (stereo not shown) [CBK305829]: class 0

Now take the following molecule into account.
Say whether its viability at 28.5 h, 10 µM is strictly beneath 90%. Entry: Cc1nncn1-c1ccc(Cl)cc1C(=O)c1ccccc1Cl [CBK012372]
class 0

Ref: paper PMC12040169
